pKi: −log10 of the molar value.
// merged dataset of pKi values, system = Somatostatin receptor type 3 (Homo sapiens), multiple refs
Label true when pKi is at or above 9; anything below gets false.

Exam item: decide whether the reported pKi for CCn1nc(C2(c3noc(C)n3)N[C@@H](c3nc(-c4ccc(F)cn4)c[nH]3)Cc3c2[nH]c2ccccc32)oc1=O (single isomer, unassigned) is at least 9.
false

Lookup Cc1cccc2c(C(C)(C)NC(=O)c3cccc4c3OCCNC4)n[nH]c12
false

Lookup CCOCC1(c2nnc(C3(C)CCCO3)o2)N[C@@H](c2nc(-c3ccc(F)c(C)n3)c[nH]2)Cc2c1[nH]c1ccccc21 (some centres unmarked)
true

Lookup Cn1nc(C(C)(C)NC(=O)c2nccc3c2OCCNC3)c2ccccc21
false

Lookup COCCOCC1(c2nnc(C3CCOCC3)o2)N[C@@H](c2nc(-c3ccc(F)cn3)c[nH]2)Cc2c1[nH]c1ccccc21 (some centres unmarked)
false

Lookup COC[C@H]1OC(OCc2ccc(Cl)cc2)[C@H](NC(=O)CCCN=C(N)N)[C@H](OCc2ccc3ccccc3c2)[C@@H]1O (some centres unmarked)
false

Lookup COC[C@H]1OC(OCCc2ccccc2)[C@H](NC(=O)CCN)[C@H](OCc2ccc3ccccc3c2)[C@@H]1O (some centres unmarked)
false

Lookup COCCOCC1(c2nnc(C3CCOCC3)o2)N[C@@H](c2nc(-c3ccc(F)c(C)n3)c[nH]2)Cc2c1[nH]c1ccccc21 (some centres unmarked)
true

Lookup Cn1nc(C2(c3ccccc3)NC(c3nc(-c4ccc(F)cn4)c[nH]3)Cc3c2[nH]c2ccccc32)oc1=O (single isomer, unassigned)
false

Lookup Cc1nnc(C(C)(C)NC(=O)c2cccc3c2OCCNC3)c2ccccc12
false

Lookup Oc1nnc(C2(c3ccccc3)N[C@@H](c3nc(-c4ccc(F)cc4)c[nH]3)Cc3c2[nH]c2ccccc32)o1 (mixture of isomers)
false

Lookup COC[C@H]1OC(OCc2ccc(Cl)cc2)[C@H](NC(=O)CCCN=C(N)N)[C@H](OCc2ccc(Cl)cc2)[C@@H]1O (some centres unmarked)
false

Lookup COCCOCC1(c2nnc(C)o2)N[C@@H](c2nc(-c3ccc(F)c(C)n3)c[nH]2)Cc2c1[nH]c1ccccc21 (some centres unmarked)
true

Lookup CCOCC1(c2nnc(C(C)(C)C)o2)N[C@@H](c2nc(-c3ccc(F)cn3)c[nH]2)Cc2c1[nH]c1ccccc21 (some centres unmarked)
false

Lookup CN1CCC[C@H](C(=O)NC(C)(C)c2cc(Cl)ccc2Cl)C1
false

Lookup COC1CCC(C2(c3nnc(C)o3)NC(c3nc(-c4ccc(F)c(C)n4)c[nH]3)Cc3c2[nH]c2ccccc32)CC1 (centres unmarked)
true

Lookup COCCOCC1(c2nnc(C(C)C)o2)N[C@@H](c2nc(-c3ccc(F)c(C)n3)c[nH]2)Cc2c1[nH]c1ccccc21 (some centres unmarked)
true

Lookup CO[C@H]1[C@H](O)[C@@H](COCc2ccc3ccccc3c2)OC(OCc2ccc(Cl)cc2)[C@@H]1NC(=O)C1CCCN(C(=N)N)C1 (some centres unmarked)
false

Lookup COC[C@H]1OC(OCc2ccc3ccccc3c2)[C@H](NC(=O)CCN)[C@H](OCc2ccc(Cl)cc2)[C@@H]1O (some centres unmarked)
false

Lookup CC(C)(NC(=O)c1cccc2c1OCCNC2)c1ccnc2ccccc12
false

Lookup COC[C@H]1OC(OCc2ccc3ccccc3c2)[C@H](NC(=O)CCN)[C@H](OCc2ccc3ccccc3c2)[C@@H]1O (some centres unmarked)
false

Lookup Cn1nc(C2(c3ccc(C#N)cc3)NC(c3nc(-c4ccc(F)cc4)c[nH]3)Cc3c2[nH]c2ccccc32)oc1=O (single isomer, unassigned)
false
